molecular target: mouse MBLAC1 (Mus musculus); test: Backscattering Interferometry (BSI) binding assay, lysates of T-REx cells expressing mouse MBLAC1; details: lysate from mouse MBLAC1 expressing cells; Cef 0.78 μM to 50 μM; r2=0.96; read-out: KD for binding (single site binding equation fit to BSI data)
Sequence (Q8BWY4 whole entry): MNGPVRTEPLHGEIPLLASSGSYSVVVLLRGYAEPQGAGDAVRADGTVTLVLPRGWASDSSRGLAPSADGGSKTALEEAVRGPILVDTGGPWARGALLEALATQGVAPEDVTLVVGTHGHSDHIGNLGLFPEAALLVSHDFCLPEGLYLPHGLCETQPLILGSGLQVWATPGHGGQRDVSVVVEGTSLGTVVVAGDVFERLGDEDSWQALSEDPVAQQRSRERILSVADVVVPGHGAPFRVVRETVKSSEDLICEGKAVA

| structure.smiles | Kd, nM |
| --- | --- |
| CO/N=C(\C(=O)N[C@@H]1C(=O)N2C(C(=O)O)=C(CSc3nc(=O)c(=O)[nH]n3C)CS[C@H]12)c1csc(N)n1 | 2200 |
